- assayed_system: panel of 442 kinases (Homo sapiens)
- Construct: purchased KINOMEscan
- Type: binding
- Set-up: unit: % Ctrl
- experimental_conditions: Compound Concentration 10 µM
The entries below are paired with their reported KINOMEscan: ABL1-phosphorylated.
readout_name: KINOMEscan: ABL1-phosphorylated

[
  {
    "molecule": "COc1cc(C(=O)N2CCC(N3CCN(C)CC3)CC2)ccc1Nc1ncc2c(n1)N1CCc3cccc(c31)C(=O)N2C [Compound 24]",
    "assayed_system": "panel of 442 kinases (Homo sapiens)",
    "test_value": 81
  },
  {
    "molecule": "COc1cc(C(=O)N2CCC(N3CCN(C)CC3)CC2)ccc1Nc1ncc2c(n1)N(C)c1ccccc1C(=O)N2C [15 (LRRK2-IN-1)]",
    "assayed_system": "panel of 442 kinases (Homo sapiens)",
    "test_value": 82
  },
  {
    "molecule": "COc1cc(C(=O)N2CCC(N3CCN(C)CC3)CC2)ccc1Nc1ncc2c(n1)N(C1CCCC1)c1ccccc1C(=O)N2C [Compound 25]",
    "assayed_system": "panel of 442 kinases (Homo sapiens)",
    "test_value": 100
  },
  {
    "molecule": "CCOc1cc(C(=O)N2CCC(N3CCN(C)CC3)CC2)ccc1Nc1ncc2c(n1)N(C1CCCC1)c1ccccc1C(=O)N2C [Compound 26]",
    "assayed_system": "panel of 442 kinases (Homo sapiens)",
    "test_value": 100
  }
]

###

- assayed_system: panel of 442 kinases (Homo sapiens)
- Construct: purchased KINOMEscan
- Type: binding
- experimental_conditions: Compound Concentration 10 µM
readout_name: KINOMEscan: CSF1R

[
  {
    "query_smiles": "COc1cc(C(=O)N2CCC(N3CCN(C)CC3)CC2)ccc1Nc1ncc2c(n1)N(C)c1ccccc1C(=O)N2C",
    "readout_name": "KINOMEscan: CSF1R",
    "test_value": 98
  },
  {
    "query_smiles": "COc1cc(C(=O)N2CCC(N3CCN(C)CC3)CC2)ccc1Nc1ncc2c(n1)N(C1CCCC1)c1ccccc1C(=O)N2C",
    "readout_name": "KINOMEscan: CSF1R",
    "test_value": 56
  },
  {
    "query_smiles": "COc1cc(C(=O)N2CCC(N3CCN(C)CC3)CC2)ccc1Nc1ncc2c(n1)N1CCc3cccc(c31)C(=O)N2C",
    "readout_name": "KINOMEscan: CSF1R",
    "test_value": 57
  },
  {
    "query_smiles": "CCOc1cc(C(=O)N2CCC(N3CCN(C)CC3)CC2)ccc1Nc1ncc2c(n1)N(C1CCCC1)c1ccccc1C(=O)N2C",
    "readout_name": "KINOMEscan: CSF1R",
    "test_value": 100
  }
]

###

- assayed_system: panel of 442 kinases (Homo sapiens, UniProt P42336, M1043I)
- Construct: purchased KINOMEscan
- Sequence (P42336 whole entry M1043I): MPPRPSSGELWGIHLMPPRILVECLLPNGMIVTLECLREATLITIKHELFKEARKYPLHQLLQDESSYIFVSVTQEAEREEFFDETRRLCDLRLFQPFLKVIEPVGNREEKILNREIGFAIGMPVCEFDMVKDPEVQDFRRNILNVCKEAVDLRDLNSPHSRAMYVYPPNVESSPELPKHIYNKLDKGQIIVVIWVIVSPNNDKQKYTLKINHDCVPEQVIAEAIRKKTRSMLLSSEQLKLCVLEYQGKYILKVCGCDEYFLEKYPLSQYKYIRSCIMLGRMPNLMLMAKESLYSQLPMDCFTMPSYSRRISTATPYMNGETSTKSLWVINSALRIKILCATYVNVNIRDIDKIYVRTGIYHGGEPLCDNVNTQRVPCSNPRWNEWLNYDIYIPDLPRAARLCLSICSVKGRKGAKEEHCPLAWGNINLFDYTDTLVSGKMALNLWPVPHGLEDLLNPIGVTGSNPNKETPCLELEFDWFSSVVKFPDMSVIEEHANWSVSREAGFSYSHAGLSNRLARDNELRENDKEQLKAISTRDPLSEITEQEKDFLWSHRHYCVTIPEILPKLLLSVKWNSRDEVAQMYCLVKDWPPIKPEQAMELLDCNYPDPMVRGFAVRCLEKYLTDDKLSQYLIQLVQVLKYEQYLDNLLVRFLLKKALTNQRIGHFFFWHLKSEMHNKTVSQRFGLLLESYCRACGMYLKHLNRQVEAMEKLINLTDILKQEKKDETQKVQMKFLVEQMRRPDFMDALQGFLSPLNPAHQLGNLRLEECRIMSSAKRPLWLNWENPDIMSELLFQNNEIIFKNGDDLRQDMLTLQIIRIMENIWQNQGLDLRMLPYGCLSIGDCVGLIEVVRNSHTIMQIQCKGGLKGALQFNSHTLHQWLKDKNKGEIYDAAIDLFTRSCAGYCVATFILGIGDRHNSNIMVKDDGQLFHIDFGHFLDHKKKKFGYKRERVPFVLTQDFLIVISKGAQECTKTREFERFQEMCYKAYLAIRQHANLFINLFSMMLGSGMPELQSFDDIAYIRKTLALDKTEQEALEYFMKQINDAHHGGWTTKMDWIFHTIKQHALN
- Type: binding
- experimental_conditions: Compound Concentration 10 µM
readout_name: KINOMEscan: PIK3CA(M1043I)

[
  {
    "molecule": "COc1cc(C(=O)N2CCC(N3CCN(C)CC3)CC2)ccc1Nc1ncc2c(n1)N(C1CCCC1)c1ccccc1C(=O)N2C [Compound 25]",
    "test_value": 93
  },
  {
    "molecule": "COc1cc(C(=O)N2CCC(N3CCN(C)CC3)CC2)ccc1Nc1ncc2c(n1)N1CCc3cccc(c31)C(=O)N2C [Compound 24]",
    "test_value": 66
  },
  {
    "molecule": "COc1cc(C(=O)N2CCC(N3CCN(C)CC3)CC2)ccc1Nc1ncc2c(n1)N(C)c1ccccc1C(=O)N2C [15 (LRRK2-IN-1)]",
    "test_value": 65
  },
  {
    "molecule": "CCOc1cc(C(=O)N2CCC(N3CCN(C)CC3)CC2)ccc1Nc1ncc2c(n1)N(C1CCCC1)c1ccccc1C(=O)N2C [Compound 26]",
    "test_value": 92
  }
]

###

- assayed_system: panel of 442 kinases (Homo sapiens, UniProt Q9H093)
- Construct: purchased KINOMEscan
- Sequence (Q9H093 1-628): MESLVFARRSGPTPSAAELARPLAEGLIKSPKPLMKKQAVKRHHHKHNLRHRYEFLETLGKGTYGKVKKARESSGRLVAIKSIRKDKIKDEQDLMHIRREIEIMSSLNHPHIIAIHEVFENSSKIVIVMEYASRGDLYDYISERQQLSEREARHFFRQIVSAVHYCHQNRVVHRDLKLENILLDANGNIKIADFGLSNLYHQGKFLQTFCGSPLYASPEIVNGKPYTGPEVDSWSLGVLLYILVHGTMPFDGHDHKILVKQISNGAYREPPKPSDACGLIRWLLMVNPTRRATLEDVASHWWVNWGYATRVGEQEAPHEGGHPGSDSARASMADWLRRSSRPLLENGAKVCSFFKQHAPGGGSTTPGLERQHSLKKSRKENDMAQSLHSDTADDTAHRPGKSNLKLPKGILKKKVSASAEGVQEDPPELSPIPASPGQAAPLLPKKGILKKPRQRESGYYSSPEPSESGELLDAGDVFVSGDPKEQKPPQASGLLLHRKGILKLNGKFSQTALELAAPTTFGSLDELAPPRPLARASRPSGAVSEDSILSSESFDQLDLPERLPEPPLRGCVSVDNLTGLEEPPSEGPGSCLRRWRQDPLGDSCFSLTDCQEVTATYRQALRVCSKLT
- Assay type: binding
- experimental_conditions: kinase SNARK; compound concentration 10 µM
The entries below are paired with their reported % Ctrl, SNARK.

[
  {
    "query_smiles": "CCOc1cc(C(=O)N2CCC(N3CCN(C)CC3)CC2)ccc1Nc1ncc2c(n1)N(C1CCCC1)c1ccccc1C(=O)N2C",
    "assayed_system": "panel of 442 kinases (Homo sapiens, UniProt Q9H093)",
    "% Ctrl, SNARK / % Ctrl": 96
  },
  {
    "query_smiles": "COc1cc(C(=O)N2CCC(N3CCN(C)CC3)CC2)ccc1Nc1ncc2c(n1)N(C)c1ccccc1C(=O)N2C",
    "assayed_system": "panel of 442 kinases (Homo sapiens, UniProt Q9H093)",
    "% Ctrl, SNARK / % Ctrl": 47
  },
  {
    "query_smiles": "COc1cc(C(=O)N2CCC(N3CCN(C)CC3)CC2)ccc1Nc1ncc2c(n1)N1CCc3cccc(c31)C(=O)N2C",
    "assayed_system": "panel of 442 kinases (Homo sapiens, UniProt Q9H093)",
    "% Ctrl, SNARK / % Ctrl": 74
  },
  {
    "query_smiles": "COc1cc(C(=O)N2CCC(N3CCN(C)CC3)CC2)ccc1Nc1ncc2c(n1)N(C1CCCC1)c1ccccc1C(=O)N2C",
    "assayed_system": "panel of 442 kinases (Homo sapiens, UniProt Q9H093)",
    "% Ctrl, SNARK / % Ctrl": 100
  }
]

###

- assayed_system: panel of 442 kinases (Homo sapiens, UniProt Q9BX84)
- Construct: purchased KINOMEscan
- Sequence (Q9BX84 whole entry): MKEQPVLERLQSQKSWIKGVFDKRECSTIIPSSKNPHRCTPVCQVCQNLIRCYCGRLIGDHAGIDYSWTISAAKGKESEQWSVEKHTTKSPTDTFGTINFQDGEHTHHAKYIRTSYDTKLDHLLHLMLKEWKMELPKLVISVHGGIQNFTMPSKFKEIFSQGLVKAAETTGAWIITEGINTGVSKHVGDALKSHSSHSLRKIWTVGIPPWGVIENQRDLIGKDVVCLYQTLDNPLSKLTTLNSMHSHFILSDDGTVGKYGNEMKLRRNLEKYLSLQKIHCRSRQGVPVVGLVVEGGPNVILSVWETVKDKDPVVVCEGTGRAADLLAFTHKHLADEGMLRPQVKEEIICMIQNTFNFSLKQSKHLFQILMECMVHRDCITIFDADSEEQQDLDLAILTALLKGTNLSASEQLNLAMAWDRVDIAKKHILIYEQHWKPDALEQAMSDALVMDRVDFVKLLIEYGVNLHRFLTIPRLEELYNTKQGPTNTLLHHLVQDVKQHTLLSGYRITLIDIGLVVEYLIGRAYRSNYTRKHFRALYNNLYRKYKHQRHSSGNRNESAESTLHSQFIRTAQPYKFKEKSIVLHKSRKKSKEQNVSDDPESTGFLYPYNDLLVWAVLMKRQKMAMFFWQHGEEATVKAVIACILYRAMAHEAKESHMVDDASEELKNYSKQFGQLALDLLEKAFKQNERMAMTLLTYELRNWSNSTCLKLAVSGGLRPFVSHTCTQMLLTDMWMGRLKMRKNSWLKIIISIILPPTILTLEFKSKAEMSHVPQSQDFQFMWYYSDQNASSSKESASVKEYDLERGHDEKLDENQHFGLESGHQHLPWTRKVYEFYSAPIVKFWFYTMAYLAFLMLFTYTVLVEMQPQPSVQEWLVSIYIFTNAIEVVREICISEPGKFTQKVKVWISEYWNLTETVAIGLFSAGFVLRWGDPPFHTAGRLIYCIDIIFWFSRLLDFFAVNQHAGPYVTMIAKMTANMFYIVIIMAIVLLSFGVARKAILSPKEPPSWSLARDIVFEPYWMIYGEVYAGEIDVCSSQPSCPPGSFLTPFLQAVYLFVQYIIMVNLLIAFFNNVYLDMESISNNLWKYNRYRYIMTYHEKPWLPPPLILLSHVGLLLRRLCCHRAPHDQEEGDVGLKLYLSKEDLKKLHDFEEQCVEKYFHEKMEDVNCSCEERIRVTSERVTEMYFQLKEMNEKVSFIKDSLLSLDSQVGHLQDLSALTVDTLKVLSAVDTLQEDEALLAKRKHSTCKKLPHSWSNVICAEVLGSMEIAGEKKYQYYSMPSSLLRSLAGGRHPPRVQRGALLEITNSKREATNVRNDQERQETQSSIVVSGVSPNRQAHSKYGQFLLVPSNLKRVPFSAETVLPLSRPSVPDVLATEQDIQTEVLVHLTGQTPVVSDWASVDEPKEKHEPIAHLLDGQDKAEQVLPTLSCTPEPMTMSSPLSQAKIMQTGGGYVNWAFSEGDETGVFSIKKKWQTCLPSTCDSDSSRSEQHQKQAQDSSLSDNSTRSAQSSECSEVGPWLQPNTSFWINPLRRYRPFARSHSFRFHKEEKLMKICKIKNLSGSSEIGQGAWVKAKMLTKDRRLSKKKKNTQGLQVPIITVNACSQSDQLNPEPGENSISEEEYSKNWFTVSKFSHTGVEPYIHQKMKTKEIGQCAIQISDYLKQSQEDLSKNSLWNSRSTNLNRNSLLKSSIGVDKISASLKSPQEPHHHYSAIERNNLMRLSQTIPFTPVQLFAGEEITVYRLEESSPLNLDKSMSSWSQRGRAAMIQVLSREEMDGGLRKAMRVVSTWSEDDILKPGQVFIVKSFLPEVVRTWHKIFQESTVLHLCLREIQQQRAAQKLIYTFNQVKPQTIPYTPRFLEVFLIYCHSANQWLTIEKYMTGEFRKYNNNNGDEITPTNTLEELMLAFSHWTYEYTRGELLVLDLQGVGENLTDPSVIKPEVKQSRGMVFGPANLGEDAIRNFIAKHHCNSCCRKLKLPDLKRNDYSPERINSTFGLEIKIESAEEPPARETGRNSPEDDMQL
- Format: binding
- experimental_conditions: kinase TRPM6; compound concentration 10 µM
- From the text: We assessed the selectivity of members of this scaffold using the KINOMEscan methodology across a near comprehensive panel of 442 kinases [[18,27]].
The entries below are paired with their reported % Ctrl, TRPM6.

[
  {
    "query_smiles": "COc1cc(C(=O)N2CCC(N3CCN(C)CC3)CC2)ccc1Nc1ncc2c(n1)N(C)c1ccccc1C(=O)N2C",
    "measurement_units": "% Ctrl",
    "% Ctrl, TRPM6": 100
  },
  {
    "query_smiles": "COc1cc(C(=O)N2CCC(N3CCN(C)CC3)CC2)ccc1Nc1ncc2c(n1)N1CCc3cccc(c31)C(=O)N2C",
    "measurement_units": "% Ctrl",
    "% Ctrl, TRPM6": 100
  },
  {
    "query_smiles": "COc1cc(C(=O)N2CCC(N3CCN(C)CC3)CC2)ccc1Nc1ncc2c(n1)N(C1CCCC1)c1ccccc1C(=O)N2C",
    "measurement_units": "% Ctrl",
    "% Ctrl, TRPM6": 100
  },
  {
    "query_smiles": "CCOc1cc(C(=O)N2CCC(N3CCN(C)CC3)CC2)ccc1Nc1ncc2c(n1)N(C1CCCC1)c1ccccc1C(=O)N2C",
    "measurement_units": "% Ctrl",
    "% Ctrl, TRPM6": 94
  }
]

###

The entries below are paired with their reported KINOMEscan: CAMK2D.
- assayed_system: panel of 442 kinases (Homo sapiens)
- Construct: purchased KINOMEscan
- Assay type: binding
- Parameters: unit: % Ctrl
- experimental_conditions: Compound Concentration 10 µM
readout_name: KINOMEscan: CAMK2D

[
  {
    "query_smiles": "COc1cc(C(=O)N2CCC(N3CCN(C)CC3)CC2)ccc1Nc1ncc2c(n1)N(C)c1ccccc1C(=O)N2C",
    "readout_name": "KINOMEscan: CAMK2D",
    "test_value": 28
  },
  {
    "query_smiles": "CCOc1cc(C(=O)N2CCC(N3CCN(C)CC3)CC2)ccc1Nc1ncc2c(n1)N(C1CCCC1)c1ccccc1C(=O)N2C",
    "readout_name": "KINOMEscan: CAMK2D",
    "test_value": 96
  },
  {
    "query_smiles": "COc1cc(C(=O)N2CCC(N3CCN(C)CC3)CC2)ccc1Nc1ncc2c(n1)N1CCc3cccc(c31)C(=O)N2C",
    "readout_name": "KINOMEscan: CAMK2D",
    "test_value": 62
  },
  {
    "query_smiles": "COc1cc(C(=O)N2CCC(N3CCN(C)CC3)CC2)ccc1Nc1ncc2c(n1)N(C1CCCC1)c1ccccc1C(=O)N2C",
    "readout_name": "KINOMEscan: CAMK2D",
    "test_value": 100
  }
]
